- testedSystem: Potassium voltage-gated channel subfamily KQT member 2 (Rattus norvegicus) (UniProt O88943)
- Sequence (O88943 whole entry, looked up): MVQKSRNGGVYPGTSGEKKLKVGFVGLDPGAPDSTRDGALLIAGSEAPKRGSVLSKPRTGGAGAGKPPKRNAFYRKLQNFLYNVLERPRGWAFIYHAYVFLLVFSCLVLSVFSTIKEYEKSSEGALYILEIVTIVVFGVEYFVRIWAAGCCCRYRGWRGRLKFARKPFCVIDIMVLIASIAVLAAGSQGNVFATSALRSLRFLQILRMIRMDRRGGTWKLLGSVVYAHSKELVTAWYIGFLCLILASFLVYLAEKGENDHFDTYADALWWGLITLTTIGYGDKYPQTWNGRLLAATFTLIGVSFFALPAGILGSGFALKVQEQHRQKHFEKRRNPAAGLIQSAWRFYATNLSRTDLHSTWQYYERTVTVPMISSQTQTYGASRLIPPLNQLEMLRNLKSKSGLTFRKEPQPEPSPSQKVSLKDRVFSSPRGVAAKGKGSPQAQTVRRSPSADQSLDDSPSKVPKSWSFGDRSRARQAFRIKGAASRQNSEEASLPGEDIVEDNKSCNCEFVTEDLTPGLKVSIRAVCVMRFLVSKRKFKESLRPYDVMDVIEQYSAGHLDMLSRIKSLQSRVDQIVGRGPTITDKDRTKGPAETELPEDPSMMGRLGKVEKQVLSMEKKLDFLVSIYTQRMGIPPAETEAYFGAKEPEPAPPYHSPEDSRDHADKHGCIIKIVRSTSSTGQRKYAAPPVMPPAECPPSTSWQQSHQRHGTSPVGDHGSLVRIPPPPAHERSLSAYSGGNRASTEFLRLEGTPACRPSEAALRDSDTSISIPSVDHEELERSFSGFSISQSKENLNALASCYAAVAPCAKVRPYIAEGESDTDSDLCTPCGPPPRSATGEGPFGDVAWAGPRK
- assayDetails: KCNQ2 potentiation in CHO cells – cell-based, FluxOR thallium flux, counter-screen for hERG block protector project, confirmation (AID 1942);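 note: normalized value minus buffer-control mean plus three SD of buffer wells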
- conditionContext: FluxOR thallium flux fluorescence, at 10 µM, stronger effect = higher value
The campaign covered roughly 2,400 compounds. About 580 (24%) were called active. Not all results are given here.
reportedProperty: activity change, less the hit threshold (%)
The response must be a number in % with no trailing unit.

A selection of reference data follows.
COC(=O)Nc1c(-c2ccccc2)nc2ccccn12 ... -17
Cc1cc(F)c(F)c(C(=O)N2CCOCC2)c1 ... -20.6
CON/C=N/C(=S)Nc1ncc(C(F)(F)F)cc1Cl ... 29.7
C=CCNC(=S)Nc1sc2c(c1C(=O)OCC)CC(C)(CC)OC2 (configuration not stated) ... 15.9
CC(C)c1nc2sc3c(=S)nc[nH]c3c2c2c1CCC2 ... 14.2

Asked: Quick one: activity change, less the hit threshold for Cc1noc(C)c1COc1cccc(C(=O)NCc2cccc(Cl)c2)c1 ?
Given back: -21.4

Asked: Quick one: activity change, less the hit threshold for CC(C)(C)C1(O)CC(C(F)(F)F)=NN1C(=O)Cc1ccc([N+](=O)[O-])cc1 (configuration not stated) ?
Given back: -20.8

---

- testedSystem: Potassium voltage-gated channel subfamily KQT member 2 (Rattus norvegicus)
- assayDetails: KCNQ2 potentiation in CHO cells – cell-based, FluxOR thallium flux, counter-screen for hERG block protector project, confirmation (AID 1942);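 note: normalized value minus buffer-control mean plus three SD of buffer wells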
- conditionContext: FluxOR thallium flux fluorescence, at 10 µM, stronger effect = higher value
Screen size: about 2,400 compounds; about 580 (24%) were called active. The list is a sample of the results.
Would you mind labelling by activity change, less the hit threshold? At or over -20% is satisfied, under is not satisfied.

Asked: Test whether the compound CCC(=O)Nc1nnc(-c2ccccn2)o1 records activity change, less the hit threshold of -20% or higher.
Given back: not satisfied

Asked: Test whether the compound CCCCN(C(=O)CC1CCCC1)c1c(N)n(CC(C)C)c(=O)[nH]c1=O records activity change, less the hit threshold of -20% or higher.
Given back: satisfied

---

- testedSystem: Potassium voltage-gated channel subfamily KQT member 2 (Rattus norvegicus) (UniProt O88943)
- assayDetails: KCNQ2 potentiation in CHO cells – cell-based, FluxOR thallium flux, counter-screen for hERG block protector project, confirmation (AID 1942);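 note: normalized value minus buffer-control mean plus three SD of buffer wells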
- conditionContext: FluxOR thallium flux fluorescence, at 10 µM, stronger effect = higher value
Out of some 2,400 compounds screened, about 580 (24%) were called active. The list is a sample of the results.
reportedProperty: activity change, less the hit threshold (%)
The response must be a number in % with no trailing unit.

COc1ccc(NC(=S)Nc2ccccn2)cc1 ... -16.1
O=C(COc1ccccc1Cl)NC(=S)Nc1ccccc1N1CCCC1 ... -15.7
CCOC(=O)c1sc2nc(N3CCOCC3)c3c(c2c1N)CCN(Cc1ccccc1)C3 ... 0.1
CCCCCn1c(=S)[nH]c2ncccc2c1=O ... 17.1

Asked: Quick one: activity change, less the hit threshold for CC(=O)Cn1c(=O)c2c(nc3n2CCCN3Cc2ccccc2)n(C)c1=O ?
Given back: -11.9

Asked: Quick one: activity change, less the hit threshold for CC(C)CCn1c(=S)[nH]c2ncccc2c1=O ?
Given back: -3.7

Asked: Quick one: activity change, less the hit threshold for CCN(CCCn1c(=S)[nH]c2ncccc2c1=O)c1ccccc1 ?
Given back: 10.4

Asked: Quick one: activity change, less the hit threshold for Cc1ccc(NC(=O)C(=O)NNC(=O)c2ccccc2C)cc1Cl ?
Given back: 90.3

Asked: Quick one: activity change, less the hit threshold for Cc1snnc1C(=O)NC(=S)Nc1ccccc1 ?
Given back: 30.3

---

The compounds listed here are annotated with their activity change, less the hit threshold.
- testedSystem: Potassium voltage-gated channel subfamily KQT member 2 (Rattus norvegicus) (UniProt O88943)
- assayDetails: KCNQ2 potentiation in CHO cells – cell-based, FluxOR thallium flux, counter-screen for hERG block protector project, confirmation (AID 1942);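 note: normalized value minus buffer-control mean plus three SD of buffer wells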
- conditionContext: FluxOR thallium flux fluorescence, at 10 µM, stronger effect = higher value
Hit rate of the full screen: of about 2,400 compounds, about 580 (24%) were called active. The list is a sample of the results.
The response must be a number in % with no trailing unit.

A selection of reference data follows.
S=c1[nH]nc(-c2ccccn2)n1/N=C/c1ccc(-c2ccccc2Br)o1 ... -12.9
O=C(CSc1nnc(SCc2ccccc2)s1)N/N=C/c1ccc(Cl)cc1Cl ... -22.9
COc1ccc(-c2cn3nc(SCC(=O)NC4CCCCC4)ccc3n2)cc1 ... -7.9
COc1ccc(C2N=C(c3ccccc3)C(C)(C)N2O)cc1 (centres undefined) ... -18.6
Cc1cc(Br)c(NC(=O)COC(=O)C2CC2C)c(Br)c1 (centres undefined) ... 4.5
Cc1cccc(/C=N/n2c(COc3ccccc3)n[nH]c2=S)c1 ... -13.8

Asked: Quick one: activity change, less the hit threshold for COCCCNC(=O)CC(NS(=O)(=O)c1ccc(F)cc1)c1ccc(OC)cc1 (centres undefined) ?
Given back: -22.5

Asked: Quick one: activity change, less the hit threshold for CC1=[N+]([O-])C(C)(C)C(c2ccc(Br)cc2)=[N+]1[O-] ?
Given back: 7.3

Asked: Quick one: activity change, less the hit threshold for Cc1ccc(CC23CN4CCN(CC(C4)C2O)C3)c(C)c1 (centres undefined) ?
Given back: -8.4

Asked: Quick one: activity change, less the hit threshold for O=C(COC(=O)C1CCC(=O)N1)Nc1cc(Cl)ccc1Cl (centres undefined) ?
Given back: -16.9

---

- testedSystem: Potassium voltage-gated channel subfamily KQT member 2 (Rattus norvegicus)
- assayDetails: KCNQ2 potentiation in CHO cells – cell-based, FluxOR thallium flux, counter-screen for hERG block protector project, confirmation (AID 1942);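 note: normalized value minus buffer-control mean plus three SD of buffer wells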
- conditionContext: FluxOR thallium flux fluorescence, at 10 µM, stronger effect = higher value
The campaign covered roughly 2,400 compounds. About 580 (24%) were called active. Not all results are given here.
reportedProperty: activity change, less the hit threshold (%)
The response must be a number in % with no trailing unit.

A selection of reference data follows.
COC(=O)c1sccc1NC(=O)CSc1ccccc1NS(=O)(=O)c1cc(Cl)ccc1Cl ... -17
Cc1cccc(C(=O)NC(=S)NNC(=O)c2ccc(Cl)cc2)c1 ... -29
O=C(NC(=S)N1CCN(Cc2ccc3c(c2)OCO3)CC1)c1cccc(Br)c1 ... 46.4
COC(=O)CNC(=S)NC(=O)c1ccc(C(C)(C)C)cc1 ... -13

Asked: Quick one: activity change, less the hit threshold for CCOC(=O)N1CCN(C(=O)CSc2nnc(-c3ccccc3OC)o2)CC1 ?
Given back: -10.3

Asked: Quick one: activity change, less the hit threshold for Fc1cccc2sc(Nc3nnc(-c4ccccc4)o3)nc12 ?
Given back: 79.5

---

- testedSystem: Potassium voltage-gated channel subfamily KQT member 2 (Rattus norvegicus) (UniProt O88943)
- assayDetails: KCNQ2 potentiation in CHO cells – cell-based, FluxOR thallium flux, counter-screen for hERG block protector project, confirmation (AID 1942);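 note: normalized value minus buffer-control mean plus three SD of buffer wells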
- conditionContext: FluxOR thallium flux fluorescence, at 10 µM
Out of some 2,400 compounds screened, about 580 (24%) were called active.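 How the source made its calls: active means activity change at or above the mean plus 3 SD of buffer wells without dofetilide, per plate; inactive means the rest.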 The list is a sample of the results.
// allowed return values: true (1) for active, false (0) for inactive

A selection of reference data follows.
O=C(c1ccccc1)c1nccn1-c1ccc(Cl)nn1 ... false (0)
Oc1ccc(N2CCN(C(c3cccnc3)c3nnnn3Cc3ccccc3)CC2)cc1 (stereo not given) ... false (0)
CCOC(=O)CP(=O)(c1ccccc1)c1ccccc1 ... false (0)

Asked: Please indicate how the test categorized O=C1CC(O)(C(F)(F)F)Oc2c1ccc1ccccc21 (stereo not given) .
Given back: true (1)

Asked: Please indicate how the test categorized CC(C)(C)n1nnnc1C(c1cc2cc3c(cc2[nH]c1=O)OCCO3)N1CCSCC1 (stereo not given) .
Given back: false (0)

---

The compounds listed here are annotated with their activity change, less the hit threshold.
- testedSystem: Potassium voltage-gated channel subfamily KQT member 2 (Rattus norvegicus)
- assayDetails: KCNQ2 potentiation in CHO cells – cell-based, FluxOR thallium flux, counter-screen for hERG block protector project, confirmation (AID 1942);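 note: normalized value minus buffer-control mean plus three SD of buffer wells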
- conditionContext: FluxOR thallium flux fluorescence, at 10 µM, stronger effect = higher value
Out of some 2,400 compounds screened, about 580 (24%) were called active. Only a sample is shown.
The response must be a number in % with no trailing unit.

CCCCn1nc(NC(=O)COC)c2cc3ccc(C)cc3nc21 ... -8.8
O=C(Nc1ccccc1)O/N=C/c1ccncc1 ... -19.6
C=CCn1c(SCC(=O)Nc2cccc(C)c2)nnc1-c1cnccn1 ... -26.8
CC(C)(C)c1ccccc1NC(=S)NC1CCCC1 ... -7.6
C=CCn1c(=S)[nH]c2cc(-c3ccccc3)sc2c1=O ... -4.4
CCC1(c2ccccc2)NC(=S)N(c2ccc(C)c(C)c2)N1 (configuration not stated) ... 111

Asked: Quick one: activity change, less the hit threshold for CCOc1ccc(N=Nc2cc(C(C)C)ccc2O)cc1 ?
Given back: -9.1

Asked: Quick one: activity change, less the hit threshold for CCC(C)(C(=O)NC1CCCC1)N(C(=O)c1ccccn1)c1ccccc1 (configuration not stated) ?
Given back: -13

Asked: Quick one: activity change, less the hit threshold for O=C(C1CCN(S(=O)(=O)c2cc(Cl)ccc2Cl)CC1)N1CCOCC1 ?
Given back: -26

Asked: Quick one: activity change, less the hit threshold for C=CCn1c(SCC(N)=O)nc2scc(-c3ccc(C)o3)c2c1=O ?
Given back: 1.7

Asked: Quick one: activity change, less the hit threshold for NC(=O)CSc1nc2ccccc2c(=O)n1CCc1ccccc1 ?
Given back: -15.2

Asked: Quick one: activity change, less the hit threshold for COC(=O)/C=C1\S/C(=N/N=C/c2ccco2)NC1=O ?
Given back: -11

Asked: Quick one: activity change, less the hit threshold for COc1ccc(/C(C)=N/Nc2ccc(C(=O)O)cc2)c(OC)c1 ?
Given back: -18.1

Asked: Quick one: activity change, less the hit threshold for CC(Oc1ccc(Br)cc1)c1nc2c3ccccc3nc(=S)n2[nH]1 (configuration not stated) ?
Given back: 14.3

Asked: Quick one: activity change, less the hit threshold for NC(=O)c1nsc(C(=O)N(CC(=O)NCc2ccccc2)c2ccc(F)cc2)c1N ?
Given back: -23.6

Asked: Quick one: activity change, less the hit threshold for CC(NC(=S)NC1CCCCC1)c1ccccc1 (configuration not stated) ?
Given back: 6.9

Asked: Quick one: activity change, less the hit threshold for COc1ccc(NC(=O)N2CCN(c3ccc([N+](=O)[O-])cc3)CC2)cc1OC ?
Given back: -23.2
